# measuredOn: 5-hydroxytryptamine receptor 1A (Rattus norvegicus, UniProt P19327)
# Sequence (P19327 whole entry): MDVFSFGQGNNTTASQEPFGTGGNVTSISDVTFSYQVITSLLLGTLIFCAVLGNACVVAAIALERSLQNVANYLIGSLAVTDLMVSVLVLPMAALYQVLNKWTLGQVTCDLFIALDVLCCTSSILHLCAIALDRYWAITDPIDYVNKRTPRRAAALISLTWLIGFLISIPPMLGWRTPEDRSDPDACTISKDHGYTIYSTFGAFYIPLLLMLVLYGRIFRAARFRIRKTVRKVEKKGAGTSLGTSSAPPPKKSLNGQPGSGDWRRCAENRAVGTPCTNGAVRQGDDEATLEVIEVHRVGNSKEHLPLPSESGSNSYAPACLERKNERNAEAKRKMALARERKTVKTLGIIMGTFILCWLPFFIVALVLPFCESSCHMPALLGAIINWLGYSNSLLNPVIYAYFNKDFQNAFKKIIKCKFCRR
pKi: −log10 of the molar value.
Note to self: values exactly at 8 are class 1. So pKi at or above 8 is class 1, below is class 0.

Worked examples, 3 compounds total:
[[record]]
smilescode = "c1ccc(N2CCN(CCCCCCN3CCN(c4ccnc5ccccc45)CC3)CC2)cc1"
qualitativelabel = "class 0"

[[record]]
smilescode = "COc1cccc(N2CCN(CCCCCCN3CCN(c4cccc(Cl)c4)CC3)CC2)c1"
qualitativelabel = "class 1"

[[record]]
smilescode = "Cc1cccc(N2CCN(CCCCCCN3CCN(c4cccc(C)c4)CC3)CC2)c1"
qualitativelabel = "class 0"


Next compound, please.
hey, is pKi for this one >= 8? Cc1cccc(N2CCN(CCCCCCN3CCN(c4ccccn4)CC3)CC2)c1
class 1
